Recorded z-score for the following compounds
experiment: modulators of S6 phosphorylation in cells, primary screen, cell-based, A549, cytoblot, luminescence, serum-stimulated (AID 1158); details: A549 phospho-S6 cytoblot, 5 h, higher = more signal;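 further: serum-stimulated A549 lung adenocarcinoma cells; signal is phosphorylated S6 detected by cytoblot immunostaining with HRP secondary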
Answer with the value's number alone.

C=CCC(OC(C)=O)[C@@H]1[C@@H](N(Cc2ccc(-c3ccccc3)cc2)C(=O)c2ccc(C)cc2)c2cc(OCCCO)ccc2N1C(=O)c1ccc2ccccc2c1 (some centres undefined): 1.18
NC(=O)[C@@]1(CCS(=O)(=O)c2ccccc2)COC(c2ccc(OCCCO)cc2)=N1: -0.192
CC(C)C(=C=CC[C@@H](O)c1ccc(OCCO)cc1)CCO: 1.42

Alright, here's another compound for you.
Look up z-score of C=CCC(OC(C)=O)[C@@H]1[C@@H](N(Cc2ccc(-c3cccc(C(F)(F)F)c3)o2)C(=O)c2cccc3ccccc23)c2cc(OCCCO)ccc2N1C(=O)c1ccc2ccccc2c1 (some centres undefined) and report it.
0.813

====

molecular target: Streptavidin (Streptomyces avidinii) (UniProt P22629); assay: streptavidin binders on small-molecule microarray, primary screen, artefact control for SMM compound annotation, biophysical, 635/667 nm fluorescence (AID 1147); conditions: streptavidin binding, higher = more signal;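 further: signal reflects streptavidin binding to arrayed compounds as a control protein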
Sequence (P22629 whole entry, looked up): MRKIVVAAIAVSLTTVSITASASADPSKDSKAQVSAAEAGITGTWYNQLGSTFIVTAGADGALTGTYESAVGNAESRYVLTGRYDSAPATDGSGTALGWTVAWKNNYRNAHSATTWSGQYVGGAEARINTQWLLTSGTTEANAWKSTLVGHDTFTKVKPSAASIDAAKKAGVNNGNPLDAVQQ
readout_name: composite z-score
Field format: numeric only.

Read off the recorded composite z-score for "COCCOC(=O)N1C(=O)[C@@]2(c3cc(C#Cc4ccc(OC)cc4)ccc31)[C@H](C(=O)N1CCCCCCC1)[C@H]1C(=O)O[C@H](c3ccccc3)[C@H](c3ccccc3)N1[C@@H]2c1ccccc1OCCO"
1.53

Hello, please tell me recorded composite z-score for this one: "COCCOC(=O)N1C(=O)[C@@]2(c3cc(C#CCC(C(=O)OC)C(=O)OC)ccc31)[C@H](c1ccc(OCCO)cc1)N1[C@H](c3ccccc3)[C@H](c3ccccc3)OC(=O)[C@H]1[C@@H]2C(=O)N1CCCCCCC1"
2.53

Provide measured composite z-score value, entry: CCCCCN1CC=CC23O[C@@H]4C=CCOC(=O)[C@@H]4[C@H]2C(=O)N(CCCCCO)[C@@H]3C1=O (stereo not given in full)
-0.735

Dear colleague, please send me the reported composite z-score for C[C@@H](OCc1ccccc1)C1NC(=O)[C@@]23C(=O)N[C@@H](Cc4ccccc4)C2[C@H](C)[C@@]2(C)O[C@H]2C3/C=C/C/C=C\CNC(=O)[C@H](Cc2ccccc2)NC1=O (stereo not given in full) when you can.
-0.85

Supply recorded composite z-score for "COc1ccc(C#Cc2ccc3c(c2)[C@]2(C(=O)N3)[C@H](c3ccc(OCCO)cc3)N3[C@H](c4ccccc4)[C@H](c4ccccc4)OC(=O)[C@H]3[C@@H]2C(=O)O)cc1" here.
-0.105

====

Measured z-score, listed per entry.
assay: modulators of S6 phosphorylation in cells, primary screen, cell-based, A549, cytoblot, luminescence, serum-stimulated (AID 1158); conditions: A549 phospho-S6 cytoblot, 5 h, higher = more signal;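 further: serum-stimulated A549 lung adenocarcinoma cells; signal is phosphorylated S6 detected by cytoblot immunostaining with HRP secondary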

CCCCCCc1nc(-c2ccc(OC)nc2)cc2c1[Si](C(C)C)(C(C)C)OC2: 0.366
COc1cc2c(cc1O)C(c1ccc(CN3CCCC3)cc1)N(Cc1ccc([N+](=O)[O-])o1)CC2 (centres undefined): -0.683
COCCOC(=O)N1C(=O)[C@@]2(c3cc(C#CCCO)ccc31)[C@H](c1ccccc1OCCO)N1[C@H](c3ccccc3)[C@H](c3ccccc3)OC(=O)[C@H]1[C@@H]2C(=O)N1CCc2cc(OC)c(OC)cc2C1: 0.199

Consider now this further compound.
Read the entry Cc1ccccc1C(O)C1C=CC2C(=O)N(c3ccccc3)C(=O)C2N1Nc1ccccc1F (centres undefined) and write its reported z-score.
-1.16

Just for reference, PubChem BioAssay is where these values come from.
